target: cathepsin L (Homo sapiens); construct: purchased Calbiochem 219402; assay: Inhibition of cathepsin L; format: biochemical; conditions: Table III; 1 uM; read-out: Cat L % I @ 1 uM
Sequence (P07711 114-288 limits assumed): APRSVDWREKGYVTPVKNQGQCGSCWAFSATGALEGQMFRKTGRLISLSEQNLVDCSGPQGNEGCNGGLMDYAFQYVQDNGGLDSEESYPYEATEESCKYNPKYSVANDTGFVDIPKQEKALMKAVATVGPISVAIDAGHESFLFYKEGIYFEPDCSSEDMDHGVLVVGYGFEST
Sequence (P07711 292-333 limits assumed): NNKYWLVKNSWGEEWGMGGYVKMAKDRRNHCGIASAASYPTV
MEASURED METRIC: inhibition at 1 µM (%)

# COMPOUND, MEASURED METRIC, RESULT NUMBER
data = [
    ("O=C[C@H](Cc1ccccc1)NC(=O)[C@@H](COCc1ccccc1)NS(=O)(=O)c1ccc(F)cc1", "inhibition at 1 µM", 100),
]

P. O=C[C@H](Cc1ccccc1)NC(=O)[C@@H](Cc1ccccc1)NS(=O)(=O)c1cccs1
Q. Cc1ccc(S(=O)(=O)O[C@@H]2C[C@H](C(=O)N[C@H](C=O)Cc3ccccc3)N(S(=O)(=O)c3ccc(C)cc3)C2)cc1
API: POST /compare with P and Q ; response names the item with higher inhibition at 1 µM. Your answer should be the label of the entry you select.
P

----------
biological target: α-chymotrypsin (Bos taurus); construct: purchased Sigma Chem. Co. C-3142; test: Inhibition of α-chymotrypsin; format: biochemical; conditions: Table III; 10 uM; read-out: Chymotrypsin % I @ 10 uM
MEASURED METRIC: inhibition at 10 µM (%)

# STRUCTURE AS SMILES, MEASUREMENT UNITS, RESULT NUMBER
records = [
    ("O=C[C@H](Cc1ccccc1)NC(=O)[C@@H](Cc1c[nH]c2ccccc12)NS(=O)(=O)c1ccccc1", "%", 5),
]

P. Cc1ccc(S(=O)(=O)O[C@@H]2C[C@H](C(=O)N[C@H](C=O)Cc3ccccc3)N(S(=O)(=O)c3ccc(C)cc3)C2)cc1
Q. O=C[C@H](Cc1ccccc1)NC(=O)[C@@H](Cc1ccccc1)NS(=O)(=O)c1ccccc1
R. CN(Cc1ccccc1)C(=O)CC[C@@H](NS(C)(=O)=O)C(=O)N[C@H](C=O)Cc1ccccc1
Returns the items ordered by inhibition at 10 µM, from maximum to minimum. Answer by naming the labels in the order asked.
P, R, Q
(P: 18%, R: 8%, Q: 4%)

----------
target: thrombin (Homo sapiens); construct: purchased Sigma Chem. Co. T-7009; test: Inhibition of thrombin; format: biochemical; settings: Table III; 10 uM; read-out: Thrombin % I @ 10 uM
Square brackets hold non-standard residues; d marks the D form. Peptide text beside a SMILES is read from it. * marks the point of attachment. ξ: configuration not given here. Tos = Cc1ccc(S(=O)(=O)*)cc1; ξαMeL = CC(C)CC(C)(N)C(=O)O; dΔPro = O=C(O)[C@H]1C=CCN1; Abu = CC[C@H](N)C(=O)O; Bn = c1ccc(C*)cc1; Ms = CS(=O)(=O)*
MEASURED METRIC: inhibition at 10 µM (%)

Some entries whose results are on file:
# COMPOUND, TESTED ON, inhibition at 10 µM / %
rows = [
    ("CC[C@@H](C=O)NC(=O)[C@@H](COCc1ccccc1)NS(C)(=O)=O [Compound 41] (Ms-[dS](Bn)-[Abu]-aldehyde)", "thrombin (Homo sapiens)", 2),
    ("CC(C)CC(C)(C=O)NC(=O)[C@@H](COCc1ccccc1)NS(C)(=O)=O (stereo partly shown) [Compound 110] (Ms-[dS](Bn)-[ξαMeL]-aldehyde)", "thrombin (Homo sapiens)", 0),
    ("Cc1ccc(S(=O)(=O)N2CC=C[C@@H]2C(=O)N[C@H](C=O)Cc2ccccc2)cc1 [Compound 130] (Tos-[dΔPro]-Phe-aldehyde)", "thrombin (Homo sapiens)", 9),
    ("Cc1ccc(S(=O)(=O)O[C@H]2C[C@H](C(=O)N[C@H](C=O)Cc3ccccc3)N(S(=O)(=O)c3ccccc3)C2)cc1", "thrombin (Homo sapiens)", 0),
    ("CS(=O)(=O)N[C@H](COCc1ccccc1)C(=O)N[C@@H](Cc1ccccc1)C(=O)CCc1ccccc1", "thrombin (Homo sapiens)", 4),
]

P. CCOC(OCC)[C@H](Cc1ccccc1)NC(=O)[C@@H](COCc1ccccc1)NS(C)(=O)=O
Q. O=C[C@H](Cc1ccccc1)NC(=O)[C@@H](Cc1ccccc1)NS(=O)(=O)c1cccc2cccnc12
Endpoint returns whichever of P and Q has the numerically higher inhibition at 10 µM. Mark your selection by writing its label.
Q

----------
molecular target: Recombinant human calpain I (Homo sapiens, UniProt P07384); construct: made in house; test: Inhibition of calpain I activity; format: biochemical; details: Table III
Sequence (P07384 whole entry): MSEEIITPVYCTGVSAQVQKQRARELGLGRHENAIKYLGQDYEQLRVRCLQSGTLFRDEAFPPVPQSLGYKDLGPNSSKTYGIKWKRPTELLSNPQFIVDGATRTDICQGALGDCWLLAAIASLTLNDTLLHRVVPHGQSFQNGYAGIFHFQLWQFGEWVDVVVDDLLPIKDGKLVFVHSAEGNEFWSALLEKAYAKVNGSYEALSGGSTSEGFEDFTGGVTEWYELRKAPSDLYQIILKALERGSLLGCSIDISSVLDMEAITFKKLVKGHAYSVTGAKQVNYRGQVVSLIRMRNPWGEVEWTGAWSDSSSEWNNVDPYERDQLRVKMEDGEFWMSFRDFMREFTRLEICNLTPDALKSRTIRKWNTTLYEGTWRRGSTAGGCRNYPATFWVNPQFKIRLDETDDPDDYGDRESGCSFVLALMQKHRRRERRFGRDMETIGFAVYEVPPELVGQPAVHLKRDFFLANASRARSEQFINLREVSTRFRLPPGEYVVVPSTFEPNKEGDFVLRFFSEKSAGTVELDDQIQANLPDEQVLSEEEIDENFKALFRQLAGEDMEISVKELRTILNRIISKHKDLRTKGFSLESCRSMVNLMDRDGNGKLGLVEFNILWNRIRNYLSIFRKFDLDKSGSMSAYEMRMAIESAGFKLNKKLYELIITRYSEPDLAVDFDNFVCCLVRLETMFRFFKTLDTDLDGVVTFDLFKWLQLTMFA
Square brackets hold non-standard residues; d marks the D form. Peptide text beside a SMILES is read from it. * marks the point of attachment. 2Thi = N[C@@H](Cc1cccs1)C(=O)O; dPhg = N[C@@H](C(=O)O)c1ccccc1; Tos = Cc1ccc(S(=O)(=O)*)cc1; Ms = CS(=O)(=O)*
MEASURED METRIC: IC50 (nM)

The cases that follow already have their IC50 on record.
# COMPOUND, RESULT NUMBER
records = [
    ("CC(=O)Nc1ccc(S(=O)(=O)N[C@H](COCc2ccccc2)C(=O)N[C@H](C=O)Cc2ccccc2)cc1", 32),
    ("CS(=O)(=O)N[C@@H](C(=O)N[C@H](C=O)Cc1ccccc1)c1ccccc1 [Compound 76] (Ms-[dPhg]-Phe-aldehyde)", 13),
    ("Cc1ccc(S(=O)(=O)N2CCC[C@@H]2C(=O)N[C@H](C=O)Cc2ccccc2)cc1 [Compound 120] (Tos-[dP]-Phe-aldehyde)", 14),
    ("CN(Cc1ccccc1)C(=O)C[C@@H](NS(C)(=O)=O)C(=O)N[C@H](C=O)Cc1ccccc1", 12),
    ("CN(Cc1ccccc1)C(=O)CC[C@@H](NS(C)(=O)=O)C(=O)N[C@H](C=O)Cc1ccccc1", 1000),
]

I. CN1CCN(C)C1[C@H](Cc1ccccc1)NC(=O)[C@@H](COCc1ccccc1)NS(C)(=O)=O
II. CS(=O)(=O)N[C@@H](Cc1cccs1)C(=O)N[C@H](C=O)Cc1ccccc1 [Compound 99] (Ms-[2Thi]-Phe-aldehyde)
Between these two entries, I and II , state which has the higher IC50. // caller expects the label of the chosen entry
II

P. O=C[C@H](Cc1ccccc1)NC(=O)[C@@H](Cc1ccccc1)NS(=O)(=O)c1ccccc1
Q. O=C[C@H](Cc1ccccc1)NC(=O)[C@@H](Cc1c[nH]c2ccccc12)NS(=O)(=O)c1ccccc1
R. CC(C)C[C@@H](C=O)NC(=O)[C@@H](CC(C)C)NS(C)(=O)=O
S. CS(=O)(=O)N[C@@H](C(=O)N[C@H](C=O)Cc1ccccc1)c1cccs1
Please produce an ascending ranking of these compounds based on IC50. Use the labels to give the requested order.
S, P, Q, R

----------
biological target: Recombinant human calpain I (Homo sapiens); construct: made in house; experiment: Inhibition of calpain I activity; type: biochemical; details: Table III
pIC50: −log10 of the molar value. Square brackets hold non-standard residues; d marks the D form. Peptide text beside a SMILES is read from it. * marks the point of attachment. Tos = Cc1ccc(S(=O)(=O)*)cc1; dΔPro = O=C(O)[C@H]1C=CCN1; Cbz = O=C(OCc1ccccc1)*; Ms = CS(=O)(=O)*
MEASURED METRIC: pIC50

# COMPOUND, RESULT NUMBER
rows = [
    ("CC(C)C[C@@H](NC(=O)OCc1ccccc1)C(=O)N[C@H](C=O)Cc1ccccc1 [Compound 85] (Cbz-[dL]-Phe-aldehyde)", 6.96),
    ("O=C[C@H](Cc1ccccc1)NC(=O)[C@H]1CCCN1S(=O)(=O)Cc1ccccc1 [Compound 102]", 7.14),
    ("CS(=O)(=O)N1CCC[C@@H]1C(=O)N[C@H](C=O)Cc1ccccc1 [Compound 101] (Ms-[dP]-Phe-aldehyde)", 7.28),
]

P. Cc1ccc(S(=O)(=O)N2CC=C[C@@H]2C(=O)N[C@H](C=O)Cc2ccccc2)cc1 [Compound 130] (Tos-[dΔPro]-Phe-aldehyde)
Q. O=C[C@H](Cc1ccccc1)NC(=O)[C@@H](COCc1ccccc1)NS(=O)(=O)N1CCOCC1 [Compound 53]
R. O=C[C@H](Cc1ccccc1)NC(=O)[C@@H](Cc1ccccc1)NS(=O)(=O)c1cccs1 [Compound 75]
S. O=C[C@H](Cc1ccccc1)NC(=O)[C@@H](COCc1ccccc1)NC(=O)c1ccccc1 [Compound 44]
With regard to pIC50, arrange the entries in ascending order, please. To answer, arrange all of the labels according to the requested order.
S, Q, R, P
(S: 6.55, Q: 7.14, R: 7.70, P: 8.00)

----------
target: Recombinant human calpain I (Homo sapiens, UniProt P07384); construct: made in house; experiment: Inhibition of calpain I activity; format: biochemical; conditions: Table III; 0.1 uM
Square brackets hold non-standard residues; d marks the D form. Peptide text beside a SMILES is read from it. * marks the point of attachment. Abu = CC[C@H](N)C(=O)O; Bn = c1ccc(C*)cc1; Ms = CS(=O)(=O)*
MEASURED METRIC: inhibition at 0.1 µM (%)

# MOLECULE, RESULT NUMBER
records = [
    ("Cc1ccc(S(=O)(=O)N2C[C@@H](N=[N+]=[N-])C[C@@H]2C(=O)N[C@H](C=O)Cc2ccccc2)cc1", 85),
    ("CC[C@@H](C=O)NC(=O)[C@@H](COCc1ccccc1)NS(C)(=O)=O [Compound 41] (Ms-[dS](Bn)-[Abu]-aldehyde)", 67),
    ("CS(=O)(=O)N[C@H](COCc1ccccc1)C(=O)N[C@H]1CCCCNC1=O", 5),
]

a. CS(=O)(=O)N[C@H](COCc1ccccc1)C(=O)N[C@@H](Cc1ccccc1)C1OCCS1 (stereo partly shown)
b. O=C[C@H](Cc1ccccc1)NC(=O)[C@@H](Cc1c[nH]c2ccccc12)NS(=O)(=O)c1ccccc1
Return label of the item with the larger inhibition at 0.1 µM. Candidates: a , b . Give the label of your selection.
b
(b: 92%, a: 6%)

Data origin, for the record: patent US5852007A
